Hey, just so you know, these numbers are from ChEMBL document CHEMBL4052776.

- Species on record: Homo sapiens
- procedure.summary: Selectivity ratio of IC50 for ERBB4 (unknown origin) to IC50 for BTK (unknown origin)
measured.property: Ratio IC50
Provide a numeric answer; units are not to be included.

Qu. # query: Ratio IC50 of entry COCC(=O)N1CCO[C@@H](c2nc(-c3ccc(C(=O)Nc4cc(C(F)(F)F)ccn4)cc3F)c3c(N)nccn23)C1
Ans. 457

Qu. Quick one: Ratio IC50 for CC(C)C(=O)N1CCO[C@@H](c2nc(-c3ccc(C(=O)Nc4cc(C(F)(F)F)ccn4)cc3F)c3c(N)nccn23)C1 ?
Ans. 1170

Qu. # query: Ratio IC50 of entry Nc1nccn2c([C@@H]3CCCN(C4CCOCC4)C3)nc(-c3ccc(C(=O)Nc4cc(C(F)(F)F)ccn4)cc3F)c12
Ans. 71

Qu. For the molecule shown here, COCC(=O)N1CCC[C@@H](c2nc(-c3ccc(C(=O)Nc4cc(C(F)(F)F)ccn4)cc3F)c3c(N)nccn23)C1 , give the reported Ratio IC50.
Ans. 322
